# target-system: SARS-CoV-2 Papain-like (PLpro) protease (Severe acute respiratory syndrome coronavirus 2)
# experiment-summary: SARS-CoV-2 Papain-like (PLpro) protease biochemical enzyme inhibition assay (ubiquitin-fluorophore substrate, Ub-R110)
# measurement-conditions: Ub-R110 substrate; run in duplicate; read-out: PLpro IC50
pIC50: −log10 of the molar value.
observation-type: pIC50

Answered cases to consult:
molecule | pIC50
COc1nccnc1C#CCNC(=O)C(=O)NCc1ccccc1C(=O)NC1(c2ccc3ccccc3c2)CC1 | > 7.00
O=C(/C=C/CNC(=O)C(=O)NCc1ccccc1C(=O)NC1(c2cccc3ccccc23)CC1)NC1(C(F)(F)F)CC1 | 6.00 to 7.00
O=C(NCC#Cc1cnc(C2CC2)nc1)C(=O)NCc1ccccc1C(=O)NC1(c2ccc3ccccc3c2)CC1 | 5.00 to 6.00
N#CCNC(=O)C(=O)NCc1ccccc1C(=O)NC1(c2cc(F)cc(-c3cccs3)c2)CC1 | > 7.00
O=C(NCC#Cc1cncnc1)C(=O)NCc1ccccc1C(=O)NC1(c2ccc3ccccc3c2)CC1 | > 7.00

Task item: Give its pIC50 value. Item: COC(=O)/C=C/CNC(=O)C(=O)NCC1C[C@@H]1C(=O)N[C@H](C)c1cccc2ccccc12 (some centres unmarked)
Reply: 5.00 to 6.00

Task item: Here is the next molecule: COCc1ccc(-c2cc(C3(NC(=O)c4ccccc4CNC(=O)C(=O)NCC#N)CC3)c3ccccc3c2)s1
Reply: > 7.00

Task item: Here is the next molecule: O=C(C#CCNC(=O)C(=O)NCc1ccccc1C(=O)NC1(c2cc(-c3cccs3)cc(C(F)(F)F)c2)CC1)NC1CC1
Reply: 6.00 to 7.00

Task item: Here is the next molecule: C#CCNC(=O)C(=O)NCc1ccccc1C(=O)NC1(c2cc(-c3cn(-c4ccc(F)cc4F)nn3)cc(C(F)(F)F)c2)CC1
Reply: 5.00 to 6.00

====

# Tested on: SARS-CoV-2 replicon
# experiment-summary: microbe, parasite or virus in culture
# Type: cell-based
# measurement-conditions: Severe acute respiratory syndrome coronavirus 2, Huh-7
observation-type: EC50

compound | meas-value
N#CCNC(=O)C(=O)NCc1ccccc1C(=O)NC1(c2cc(-c3cnn(C4CC4)c3)cc(C3CC3)c2)CC1 | 1 to 10 µM

Task item: Give its EC50 value. Item: CC(C)(O)Cn1cc(-c2cc(F)cc(C3(NC(=O)c4ccccc4CNC(=O)C(=O)NCC#Cc4ncccc4Cl)CC3)c2)cn1
Reply: < 1 µM

Task item: Here is the next compound: O=C(NCC#Cc1cncnc1)C(=O)NCc1ccccc1C(=O)NC1(c2ccc3ccccc3c2)CC1
Reply: < 1 µM

Task item: Here is the next compound: C#CCNC(=O)C(=O)NCc1ccccc1C(=O)NC1(c2ccc(OC)c(-c3cnn(C4CC4)c3)c2)CC1
Reply: < 1 µM

Task item: Here is the next compound: Cc1nn(C(F)F)c(C)c1-c1cc(F)cc(C2(NC(=O)c3ccccc3CNC(=O)C(=O)NCC#Cc3nccs3)CC2)c1
Reply: < 1 µM

Task item: Here is the next compound: N#Cc1cc(F)c(C#CCNC(=O)C(=O)NCc2ccccc2C(=O)NC2(c3ccc4ccccc4c3)CC2)c(F)c1
Reply: < 1 µM

Task item: Here is the next compound: N#CCNC(=O)C(=O)NCc1ccccc1C(=O)NC1(c2cc(-c3cnn(C(F)F)c3)cc(C(F)(F)F)c2)CC1
Reply: > 10 µM

Task item: Here is the next compound: O=C(C#CCNC(=O)C(=O)NCc1ccccc1C(=O)NC1(c2cccc3ccccc23)CC1)NC1CC(F)(F)C1
Reply: < 1 µM

Task item: Here is the next compound: CC(C)(C)OC(=O)/C=C/CNC(=O)C(=O)NCc1ccccc1C(=O)NC1(c2cccc3ccccc23)CC1
Reply: 1 to 10 µM

Task item: Here is the next compound: CN1CCC1COc1ccc(CNC(=O)C(=O)NCC#N)c(C(=O)NC2(c3cccc4ccccc34)CC2)c1 (stereo not shown)
Reply: < 1 µM

Each recorded value in this set is attributed to patent US20240327334A1.
